- Test system: Staphylococcus epidermidis
- protocol_description: Antimicrobial activity against methicillin-resistant Staphylococcus epidermidis assessed as resistant isolates by broth microdilution method
- Type: functional
measurement_name: Activity (%)

# smiles_string, measurement_name, uom, measurement
measured = [
    ("CN[C@H](CC(C)C)C(=O)N[C@H]1C(=O)N[C@@H](CC(N)=O)C(=O)N[C@H]2C(=O)N[C@H]3C(=O)N[C@H](C(=O)N[C@H](C(=O)O)c4cc(O)cc(O)c4-c4cc3ccc4O)[C@H](O)c3ccc(c(Cl)c3)Oc3cc2cc(c3O[C@@H]2O[C@H](CO)[C@@H](O)[C@H](O)[C@H]2O[C@H]2C[C@](C)(N)[C@H](O)[C@H](C)O2)Oc2ccc(cc2Cl)[C@H]1O", "Activity", "%", 0),
    ("CC(=O)NC[C@H]1CN(c2ccc(N3CCOCC3)c(F)c2)C(=O)O1", "Activity", "%", 0),
    ("Cc1nnc(SCC2=C(C(=O)O)N3C(=O)[C@@H](NC(=O)Cn4cnnn4)[C@H]3SC2)s1", "Activity", "%", 100),
    ("CC[C@H]1OC(=O)[C@H](C)[C@@H](O[C@H]2C[C@@](C)(OC)[C@@H](O)[C@H](C)O2)[C@H](C)[C@@H](O[C@@H]2O[C@H](C)C[C@H](N(C)C)[C@H]2O)[C@](C)(OC)C[C@@H](C)C(=O)[C@H](C)[C@@H](O)[C@]1(C)O", "Activity", "%", 96),
    ("CCC[C@@H]1C[C@@H](C(=O)N[C@@H]([C@H]2O[C@H](SC)[C@H](O)[C@@H](O)[C@H]2O)[C@H](C)Cl)N(C)C1", "Activity", "%", 92),
    ("COc1c(N2C[C@@H]3CCCN[C@@H]3C2)c(F)cc2c(=O)c(C(=O)O)cn(C3CC3)c12", "Activity", "%", 96),
    ("C[C@@H](O)[C@H]1C(=O)N2C(C(=O)O)=C(S[C@@H]3CN[C@H](C(=O)N(C)C)C3)[C@H](C)[C@H]12", "Activity", "%", 100),
    ("O=C(O)c1cn(C2CC2)c2cc(N3CCNCC3)c(F)cc2c1=O", "Activity", "%", 100),
    ("CO/N=C(\\C(=O)N[C@@H]1C(=O)N2C(C(=O)O)=C(CSc3nc(=O)c(O)nn3C)CS[C@H]12)c1csc(N)n1", "Activity", "%", 100),
    ("CO/N=C(\\C(=O)N[C@@H]1C(=O)N2C(C(=O)[O-])=C(C[N+]3(C)CCCC3)CS[C@H]12)c1csc(N)n1", "Activity", "%", 100),
    ("CCCCCCCCCC(=O)N[C@@H](Cc1c[nH]c2ccccc12)C(=O)N[C@H](CC(N)=O)C(=O)N[C@@H](CC(=O)O)C(=O)N[C@@H]1C(=O)NCC(=O)N[C@@H](CCCN)C(=O)N[C@@H](CC(=O)O)C(=O)N[C@H](C)C(=O)N[C@@H](CC(=O)O)C(=O)NCC(=O)N[C@H](CO)C(=O)N[C@@H]([C@H](C)CC(=O)O)C(=O)N[C@@H](CC(=O)c2ccccc2N)C(=O)O[C@@H]1C", "Activity", "%", 0),
    ("C[C@H]1COc2c(N3CCN(C)CC3)c(F)cc3c(=O)c(C(=O)O)cn1c23.C[C@H]1COc2c(N3CCN(C)CC3)c(F)cc3c(=O)c(C(=O)O)cn1c23.O", "Activity", "%", 100),
]

----------
- System: Enterobacter cloacae
- protocol_description: Antimicrobial activity against carbapenem-resistant Enterobacter cloacae isolated from ICU patient blood assessed as resistant isolates by broth microdilution method
- Assay type: functional
Reported values of Activity for individual entries
measurement_name: Activity (%)

# molecule, measurement_name, uom, measurement
records = [
    ("C[C@@H](O)[C@H]1C(=O)N2C(C(=O)O)=C(S[C@@H]3CN[C@H](C(=O)N(C)C)C3)[C@H](C)[C@H]12 [MEROPENEM]", "Activity", "%", 0),
    ("NCC[C@H](O)C(=O)N[C@@H]1C[C@H](N)[C@@H](O[C@H]2O[C@H](CN)[C@@H](O)[C@H](O)[C@H]2O)[C@H](O)[C@H]1O[C@H]1O[C@H](CO)[C@@H](O)[C@H](N)[C@H]1O [AMIKACIN]", "Activity", "%", 0),
    ("CN(C)c1cc(NC(=O)CNC(C)(C)C)c(O)c2c1C[C@H]1C[C@H]3[C@H](N(C)C)C(O)=C(C(N)=O)C(=O)[C@@]3(O)C(O)=C1C2=O [TIGECYCLINE]", "Activity", "%", 0),
    ("CO/N=C(\\C(=O)N[C@@H]1C(=O)N2C(C(=O)O)=C(CSc3nc(=O)c(O)nn3C)CS[C@H]12)c1csc(N)n1 [CEFTRIAXONE]", "Activity", "%", 29.2),
    ("C[C@H]1COc2c(N3CCN(C)CC3)c(F)cc3c(=O)c(C(=O)O)cn1c23.C[C@H]1COc2c(N3CCN(C)CC3)c(F)cc3c(=O)c(C(=O)O)cn1c23.O [LEVOFLOXACIN]", "Activity", "%", 4.2),
]

----------
- System: Staphylococcus aureus
- protocol_description: Antimicrobial activity against methicillin-resistant Staphylococcus aureus isolated from ICU patient respiratory tract assessed as resistant isolates by broth microdilution method
- Assay type: functional
measurement_name: Activity (%)

# compound, target_entity, measurement
records = [
    ("C[C@@H](O)[C@H]1C(=O)N2C(C(=O)O)=C(S[C@@H]3CN[C@H](C(=O)N(C)C)C3)[C@H](C)[C@H]12 [MEROPENEM]", "Staphylococcus aureus", 100),
    ("COc1c(N2C[C@@H]3CCCN[C@@H]3C2)c(F)cc2c(=O)c(C(=O)O)cn(C3CC3)c12 [MOXIFLOXACIN]", "Staphylococcus aureus", 91.5),
    ("CCC[C@@H]1C[C@@H](C(=O)N[C@@H]([C@H]2O[C@H](SC)[C@H](O)[C@@H](O)[C@H]2O)[C@H](C)Cl)N(C)C1 [CLINDAMYCIN]", "Staphylococcus aureus", 72.9),
    ("CO/N=C(\\C(=O)N[C@@H]1C(=O)N2C(C(=O)O)=C(CSc3nc(=O)c(O)nn3C)CS[C@H]12)c1csc(N)n1 [CEFTRIAXONE]", "Staphylococcus aureus", 100),
    ("Cc1nnc(SCC2=C(C(=O)O)N3C(=O)[C@@H](NC(=O)Cn4cnnn4)[C@H]3SC2)s1 [CEFAZOLIN]", "Staphylococcus aureus", 100),
    ("CO/N=C(\\C(=O)N[C@@H]1C(=O)N2C(C(=O)[O-])=C(C[N+]3(C)CCCC3)CS[C@H]12)c1csc(N)n1", "Staphylococcus aureus", 100),
]

----------
Reported values of Activity for individual entries
- Tested on: Escherichia coli
- protocol_description: Antimicrobial activity against CTX-M ESBL producing Escherichia coli isolated from ICU patient respiratory tract assessed as resistant isolates by broth microdilution method
- Assay type: functional
measurement_name: Activity

# smiles_string, measurement
rows = [
    ("CO/N=C(\\C(=O)N[C@@H]1C(=O)N2C(C(=O)O)=C(CSc3nc(=O)c(O)nn3C)CS[C@H]12)c1csc(N)n1", "2.5%"),
    ("O=C(O)c1cn(C2CC2)c2cc(N3CCNCC3)c(F)cc2c1=O", "21.3%"),
    ("NCC[C@H](O)C(=O)N[C@@H]1C[C@H](N)[C@@H](O[C@H]2O[C@H](CN)[C@@H](O)[C@H](O)[C@H]2O)[C@H](O)[C@H]1O[C@H]1O[C@H](CO)[C@@H](O)[C@H](N)[C@H]1O", "0%"),
]

----------
Reported values of Activity for individual entries
- System: Streptococcus pneumoniae
- protocol_description: Antimicrobial activity against penicillin-resistant Streptococcus pneumoniae isolated from ICU patient blood assessed as resistant isolates by broth microdilution method
- Type: functional

# smiles_string, Activity [%]
data = [
    ("CC[C@H]1OC(=O)[C@H](C)[C@@H](O[C@H]2C[C@@](C)(OC)[C@@H](O)[C@H](C)O2)[C@H](C)[C@@H](O[C@@H]2O[C@H](C)C[C@H](N(C)C)[C@H]2O)[C@](C)(OC)C[C@@H](C)C(=O)[C@H](C)[C@@H](O)[C@]1(C)O", 13.2),
    ("CO/N=C(\\C(=O)N[C@@H]1C(=O)N2C(C(=O)[O-])=C(C[N+]3(C)CCCC3)CS[C@H]12)c1csc(N)n1", 0),
    ("COc1c(N2C[C@@H]3CCCN[C@@H]3C2)c(F)cc2c(=O)c(C(=O)O)cn(C3CC3)c12", 0),
    ("CN[C@H](CC(C)C)C(=O)N[C@H]1C(=O)N[C@@H](CC(N)=O)C(=O)N[C@H]2C(=O)N[C@H]3C(=O)N[C@H](C(=O)N[C@H](C(=O)O)c4cc(O)cc(O)c4-c4cc3ccc4O)[C@H](O)c3ccc(c(Cl)c3)Oc3cc2cc(c3O[C@@H]2O[C@H](CO)[C@@H](O)[C@H](O)[C@H]2O[C@H]2C[C@](C)(N)[C@H](O)[C@H](C)O2)Oc2ccc(cc2Cl)[C@H]1O", 0),
    ("C[C@H]1COc2c(N3CCN(C)CC3)c(F)cc3c(=O)c(C(=O)O)cn1c23.C[C@H]1COc2c(N3CCN(C)CC3)c(F)cc3c(=O)c(C(=O)O)cn1c23.O", 0),
    ("C[C@@H](O)[C@H]1C(=O)N2C(C(=O)O)=C(S[C@@H]3CN[C@H](C(=O)N(C)C)C3)[C@H](C)[C@H]12", 0),
    ("O=C(O)c1cn(C2CC2)c2cc(N3CCNCC3)c(F)cc2c1=O", 0),
    ("CC(=O)NC[C@H]1CN(c2ccc(N3CCOCC3)c(F)c2)C(=O)O1", 0),
    ("CO/N=C(\\C(=O)N[C@@H]1C(=O)N2C(C(=O)O)=C(CSc3nc(=O)c(O)nn3C)CS[C@H]12)c1csc(N)n1", 0),
    ("CCC[C@@H]1C[C@@H](C(=O)N[C@@H]([C@H]2O[C@H](SC)[C@H](O)[C@@H](O)[C@H]2O)[C@H](C)Cl)N(C)C1", 2.6),
]

Data credit: ChEMBL document CHEMBL1275409
